# tgt: T1, human CXCL1 protein (human, UniProt P09341 35-107)
# T1 construct: also called HuCXCL1
# T1 sequence: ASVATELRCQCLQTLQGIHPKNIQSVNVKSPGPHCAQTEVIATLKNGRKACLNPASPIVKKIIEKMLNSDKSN
# method_description: antigen-immobilized ELISA, HuCXCL1 on the plate, absorbance (upper left panel)
attribute_measured: EC50 (read off the curve)

Check out these entries, answers already filled in.
binder	EC50 (read off the curve)
Hu1A-7H10 VH2/VL1 (antibody, V domains shown, Humanized antibody) VH: QVTLKESGPVLVKPTETLTLTCTVSGFSSTTYGVHWVRQPPGKALEWLGVIWAGGSTNYNAALMSRLTISKDNSKSQVVLTMTNMDPVDTATYYCATQYHYPFAYWGQGTLVTVSS VL: DIQMTQSPSSLSASVGDRVTITCKASENVGIYVSWYQQKPGKAPKLMIYGASNRNTGVPSRFSGSGSGTDFTLTISSLQPEDFATYYCGQSYSYPLTFGGGTKVEIK	~0.02 µg/mL
Hu1A-7H10 VH1/VL2 (antibody, V domains shown, Humanized antibody) VH: QVTLKESGPVLVKPTETLTLTCTVSGFSSTTYGVHWVRQPPGKALEWLGVIWAGGSTNYNAALMSRLTISKDTSKSQVVLTMTNMDPVDTATYYCATQYHYPFAYWGQGTLVTVSS VL: DIQMTQSPSSLSASVGDRVTITCKASENVGIYVSWYQQKPGKAPKLMIYGASNRNTGVPSRFSGSGSATDFTLTISSLQPEDFATYYCGQSYSYPLTFGGGTKVEIK	~0.02 µg/mL

Query: EC50 (read off the curve); subject: Hu1A-7H10 VH2/VL2 (antibody, V domains shown, Humanized antibody) VH: QVTLKESGPVLVKPTETLTLTCTVSGFSSTTYGVHWVRQPPGKALEWLGVIWAGGSTNYNAALMSRLTISKDNSKSQVVLTMTNMDPVDTATYYCATQYHYPFAYWGQGTLVTVSS VL: DIQMTQSPSSLSASVGDRVTITCKASENVGIYVSWYQQKPGKAPKLMIYGASNRNTGVPSRFSGSGSATDFTLTISSLQPEDFATYYCGQSYSYPLTFGGGTKVEIK
~0.02 µg/mL
